- Tested on: SK-MEL-28 melanoma
- ASSAY_TEXT: NCI tumour cell line growth inhibition, 48 h
Exercise: for every item that follows, state its recorded TGI.

Observe how each entry below is paired with its result.
| COMPOUND | TARGET_UNDER_TEST | TGI |
| --- | --- | --- |
| COc1cc(/C=C(\NC(=O)c2ccccc2)c2nc3ccc4c(c3[nH]2)C(=O)c2ccccc2C4=O)cc(OC)c1OC | SK-MEL-28 melanoma | > 100 µM |
| S=C1NC2=C(COc3ccccc32)C(c2ccc(Cl)cc2)N1 (stereo not given) | SK-MEL-28 melanoma | 46.8 µM |
| COc1cccc(/C=C/C(=O)c2ccc(SC)cc2)c1OC | SK-MEL-28 melanoma | 36.7 µM |

Each compound below has a recorded value; state its TGI.
1. COc1cc(Oc2c(C)c(Cl)c(OC)c(Cl)c2OC)c2c(c1Cl)COC2=O
2. COC(=O)C1CCC(=O)N1C(c1cc(OC)c(OC)c(OC)c1)c1cc(OC)c(OC)c(OC)c1 (stereo not given)
3. COc1c(C)cc2c(C(C)C)c(O)c(O)c(C=O)c2c1O
4. O=C(Nc1ccc(Cl)cc1C(F)(F)F)C(=O)C1CCCS1(=O)=O (stereo not given)

1. > 100 µM
2. > 100 µM
3. 75.1 µM
4. > 100 µM

Record TGI for all entries; do not skip any.
1. CO[C@H]1C=CO[C@@]2(C)Oc3c(C)c(O)c4c(O)c(c(CN5CCN(C)CC5)c(O)c4c3C2=O)NC(=O)/C(C)=C\C=C[C@H](C)[C@H](O)C(C)[C@@H](O)C(C)[C@H](OC(C)=O)[C@@H]1C (stereo not given in full)
2. CCCc1cn2c(/C=N/N=C(N)N)c(-c3cccc([N+](=O)[O-])c3)nc2s1
3. NNC(=O)CC(=O)Nc1cccc(Cl)c1
4. O=C1/C=C/[C@@H](O)[C@@H]2C[C@@H](O)C[C@H]2/C=C/CCC[C@H](CCc2cccc3ccccc23)O1
5. CSC1NC(c2ccccc2)=C(C#N)C(=O)N1C1OCC(OC(C)=O)C(OC(C)=O)C1OC(C)=O (stereo not given)
6. COc1cccc(C23CCCC(C2)NCC3Br)c1OC (stereo not given)
7. Clc1cccc(-c2sc(-c3ccsc3)cc2Cc2ccsc2)c1

> 100 µM
3.18 µM
> 100 µM
0.163 µM
> 100 µM
> 100 µM
> 10 µM

Please state TGI for every compound in the list that follows.
1. CN(CC(=O)O)c1ncc2c(n1)C=CCC2
2. N#Cc1c(NCc2ccccc2)nc(NCc2ccccc2)c(C#N)c1-c1ccc(O)cc1
3. COc1cc2c(c(OC)c1OC)-c1ccc(SC)c(=O)cc1C(CC(=O)Oc1cccc([N+](=O)[O-])c1)C2 (stereo not given)
4. C=C(CN1CCN(c2ccc(C(F)(F)F)cc2)CC1)c1ccc(C(=O)Nc2ccccc2N)cc1
5. N=C(N)c1ccc(-c2ccc(/C=C/c3ccccc3)s2)cc1

> 100 µM
> 100 µM
> 100 µM
> 100 µM
3.07 µM

Hi team, please reply with TGI for each item in this list.
1. COc1cccc(/C=N/NC(=O)CSCC(=O)N/N=C/c2cccc(OC)c2OC)c1OC
2. CC1CCN(Cc2ccc(NC(=O)c3cc4ccc5cccnc5c4[nH]3)cc2)CC1
3. c1ccc(-c2nc3ccccc3nc2SCc2cccnc2)cc1

1: > 100 µM; 2: 3.49 µM; 3: > 100 µM
